# TARGET: Hsp90 in C. albicans (SC5314) lysate (Candida albicans, UniProt P46598)
# Construct: endogenous in cells; host or cells: C. albicans SC5314 whole-cell lysate
# Sequence (P46598 whole entry): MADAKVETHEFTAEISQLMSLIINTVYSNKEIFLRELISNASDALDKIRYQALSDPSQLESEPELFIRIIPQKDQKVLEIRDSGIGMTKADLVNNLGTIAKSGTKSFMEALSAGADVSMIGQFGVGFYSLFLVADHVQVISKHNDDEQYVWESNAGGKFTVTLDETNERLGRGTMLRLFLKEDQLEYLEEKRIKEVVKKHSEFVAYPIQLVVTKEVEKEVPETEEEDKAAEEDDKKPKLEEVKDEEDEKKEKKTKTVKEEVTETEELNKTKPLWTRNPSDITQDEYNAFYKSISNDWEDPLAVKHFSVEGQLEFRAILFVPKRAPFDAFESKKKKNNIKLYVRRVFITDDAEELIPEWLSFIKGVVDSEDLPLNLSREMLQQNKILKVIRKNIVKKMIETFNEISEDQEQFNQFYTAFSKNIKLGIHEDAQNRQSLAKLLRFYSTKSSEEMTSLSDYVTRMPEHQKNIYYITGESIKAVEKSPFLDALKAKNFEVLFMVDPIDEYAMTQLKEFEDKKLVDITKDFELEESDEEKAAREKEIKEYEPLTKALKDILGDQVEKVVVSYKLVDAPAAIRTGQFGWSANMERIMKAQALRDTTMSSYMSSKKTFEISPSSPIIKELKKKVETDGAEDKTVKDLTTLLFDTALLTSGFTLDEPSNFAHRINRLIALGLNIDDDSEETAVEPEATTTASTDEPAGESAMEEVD
# MEASUREMENT_DESCRIPTION: biochemical
# Format: binding
# TEST_CONDITIONS: SC5314 lysate, 37.037 nM
QUANTITY_NAME: FP signal (raw)
# respond with the number and nothing more

Check out these entries, answers already filled in.
CC1CC2OC2C=CC=CC(=NOCCN2CCCC2=O)Cc2c(Cl)c(O)cc(O)c2C(=O)O1 (stereo not shown) [KF58333, reference compound]; 44
CC1(C)CC(=O)c2c(C(F)(F)F)nn(-c3ccc(C(N)=O)c(N[C@H]4CC[C@H](OC(=O)CN)CC4)c3)c2C1; 60
COc1ccc(CON=C2C=CC=CC3OC3CC(C)OC(=O)c3c(O)cc(O)c(Cl)c3C2)cc1 (mixture of isomers); 198
CCNC(=O)c1noc(-c2cc(C(C)C)c(O)cc2O)c1-c1ccc(CN2CCOCC2)cc1 [AUY922, reference compound]; 35
CCON=C1/C=C/C=C\[C@H]2O[C@H]2C[C@@H](C)OC(=O)c2c(O)cc(O)c(Cl)c2C1; 58

input: # get_value(readout='FP signal (raw)', item= CC1CC2OC2C=CC=CC(=NOCc2ccccc2)Cc2c(Cl)c(O)cc(O)c2C(=O)O1 (mixture of isomers) )
output: 192

input: What does the record list as FP signal (raw) for Cc1ccc(CON=C2C=CC=CC3OC3CC(C)OC(=O)c3c(O)cc(O)c(Cl)c3C2)cc1 (mixture of isomers) ?
output: 200

###

# TARGET: Hsp90 in C. albicans (SC5314) lysate (Candida albicans, UniProt P46598)
# Construct: endogenous in cells; host or cells: C. albicans SC5314 whole-cell lysate
# MEASUREMENT_DESCRIPTION: biochemical
# Assay type: binding
# TEST_CONDITIONS: SC5314 lysate, 37.037 nM compound, raw
# FP signal listing for each entry below
Kindly provide the number alone.

Here is how some compounds turned out for FP signal.
COC1=C2C[C@@H](C)C[C@H](OC)[C@H](O)[C@@H](C)/C=C(\C)[C@H](OC(N)=O)[C@@H](OC)/C=C\C=C(/C)C(=O)NC(=CC1=O)C2=O [geldanamycin, reference compound]; 78
CCON=C1/C=C/C=C\[C@H]2O[C@H]2C[C@@H](C)OC(=O)c2c(O)cc(O)c(Cl)c2C1; 58
CC1CC2OC2C=CC=CC(=NOCc2cccc(F)c2)Cc2c(Cl)c(O)cc(O)c2C(=O)O1 (mixture of isomers); 178
CC1CC2OC2C=CC=CC(=NOCc2ccccc2)Cc2c(Cl)c(O)cc(O)c2C(=O)O1 (mixture of isomers); 192
Cc1ccc(CON=C2C=CC=CC3OC3CC(C)OC(=O)c3c(O)cc(O)c(Cl)c3C2)cc1 (mixture of isomers); 200

Okay, now this compound:
input: # input compound: CC1CC2OC2C=CC=CC(=NOCCN2CCCC2=O)Cc2c(Cl)c(O)cc(O)c2C(=O)O1 (stereo not shown) [KF58333, reference compound] ; wanted: its FP signal
output: 44

###

# TARGET: Hsp90 in C. albicans (SC5314) lysate (Candida albicans, UniProt P46598)
# Construct: endogenous in cells; host or cells: C. albicans SC5314 whole-cell lysate
# MEASUREMENT_DESCRIPTION: biochemical
# Format: binding
# TEST_CONDITIONS: SC5314 lysate, 1000 nM compound
So basically: FP signal relative to 0 nM at 0.3 or higher? That is T. Lower than 0.3? That is F.

Reference set (3 entries):
COc1ccc(CON=C2C=CC=CC3OC3CC(C)OC(=O)c3c(O)cc(O)cc3C2)cc1 (stereo not drawn); T
CCON=C1/C=C/C=C\[C@H]2O[C@H]2C[C@@H](C)OC(=O)c2c(O)cc(O)c(Cl)c2C1; F
COc1ccc(CON=C2C=CC=CC3OC3CC(C)OC(=O)c3c(O)cc(O)c(Cl)c3C2)cc1 (mixture of isomers); T

input: Answer whether FP signal relative to 0 nM of CC1CC2OC2C=CC=CC(=NOCCN2CCCC2=O)Cc2c(Cl)c(O)cc(O)c2C(=O)O1 (stereo not drawn) [KF58333, reference compound] is greater than or equal to 0.3.
output: F

input: Hi, just wondering whether CC1CC2OC2C=CC=CC(=NOCc2cccc(F)c2)Cc2c(Cl)c(O)cc(O)c2C(=O)O1 (mixture of isomers) shows FP signal relative to 0 nM of 0.3 or higher.
output: F

input: // inclusive: FP signal relative to 0 nM at least 0.3? input: `C[C@@H]1C[C@@H]2O[C@@H]2/C=C\C=C\C(=NOCc2ccccc2Cl)Cc2c(Cl)c(O)cc(O)c2C(=O)O1`
output: T
